- tested.on: hP2X3 (human Purinergic P2X receptors subtype 3) (Homo sapiens, UniProt P56373)
- procedure.details: Fluo-4 calcium mobilization assay (FDSS7000), antagonists at human P2X3 receptor in RLE/hP2X3 cells
- condition.context: RLE cells stably expressing hP2X3; 20 min preincubation; 2 uM ATP
experimental.readout: IC50 (nM)
Numbers only, in nM.

Below are worked cases with known answers.
mol=CNC(=O)c1ccc(-c2nc3cc(C)ccn3c2C[C@@H]2CN(C(C)=O)CCO2)c(C)c1 experimental_readout=IC50 test_result=87
mol=CNC(=O)c1ccc(-c2nc3cc(Cl)ccn3c2C[C@H]2CN(C(C)=O)CCO2)c(C)c1 experimental_readout=IC50 test_result=7
mol=CNC(=O)c1ccc(-c2nc3cc(C)ccn3c2C[C@H]2CN(C(C)=O)CCO2)c(C)c1 experimental_readout=IC50 test_result=4

Now consider the entry below.
Inquiry: Which IC50 value is on record for CNC(=O)c1cc(C)c(-c2nc3cc(C)ccn3c2C[C@H]2CN(C(=O)OC)CCO2)cc1F ?
Reply text: 10

---

- tested.on: hP2X3 (human Purinergic P2X receptors subtype 3) (Homo sapiens, UniProt P56373)
- Sequence (P56373 1-397): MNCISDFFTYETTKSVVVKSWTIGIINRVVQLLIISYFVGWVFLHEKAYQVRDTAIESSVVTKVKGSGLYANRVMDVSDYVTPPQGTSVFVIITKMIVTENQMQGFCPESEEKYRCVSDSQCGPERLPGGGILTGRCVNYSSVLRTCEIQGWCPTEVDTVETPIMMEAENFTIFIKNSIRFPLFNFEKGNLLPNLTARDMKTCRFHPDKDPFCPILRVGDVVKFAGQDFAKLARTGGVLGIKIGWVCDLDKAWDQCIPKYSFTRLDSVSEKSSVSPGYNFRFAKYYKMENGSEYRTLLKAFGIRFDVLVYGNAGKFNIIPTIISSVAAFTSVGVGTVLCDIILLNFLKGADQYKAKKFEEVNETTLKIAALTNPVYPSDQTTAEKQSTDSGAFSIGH
- procedure.details: Fluo-4 calcium mobilization assay (FDSS7000), antagonists at human P2X3 receptor in RLE/hP2X3 cells
- condition.context: RLE cells stably expressing hP2X3; 20 min preincubation; 2 uM ATP
Record form. Attribute: IC50. Fill in for each entry.
Numbers only, in nM.

Below are worked cases with known answers.
compound="CNC(=O)c1ccc(-c2nc3cc(C)c(F)cn3c2C[C@H]2CN(C(C)=O)CCO2)c(C)c1 [Example 39]" unit_symbol=nM test_result=10
compound="CCC(=O)N1CCO[C@@H](Cc2c(-c3c(F)cc(C(=O)NC)cc3F)nc3cc(C)ccn23)C1 [Example 16]" unit_symbol=nM test_result=3
compound="CNC(=O)c1cc(C)c(-c2nc3cc(C)ccn3c2C[C@H]2CN(C(C)=O)CCO2)cc1F [Example 18]" unit_symbol=nM test_result=7
compound="CCNC(=O)c1ccc(-c2nc3cc(C)ccn3c2C[C@H]2CN(C(C)=O)CCO2)c(C)c1 [Example 33]" unit_symbol=nM test_result=7
compound="CNC(=O)c1cc(F)c(-c2nc3cc(Cl)ccn3c2C[C@H]2CN(C(C)=O)CCO2)c(F)c1 [Example 29]" unit_symbol=nM test_result=5

Would you be so kind as to report IC50 for each listed record?
1. CNC(=O)c1ccc(-c2nc3cc(C)ccn3c2CC2CCCN(C(=O)OC)C2)c(C)c1 (centres unmarked) [Example 37]
2. CNC(=O)c1ccc(-c2nc3cc(C)ccn3c2C[C@H]2CN(C(=O)OC)CCO2)c(C)c1 [Example 21]
3. CCC(=O)N1CCO[C@H](Cc2c(-c3c(F)cc(C(=O)NC)cc3F)nc3cc(C)ccn23)C1 [Example 35]

Reply text:
11
7
16

---

- tested.on: hP2X3 (human Purinergic P2X receptors subtype 3) (Homo sapiens, UniProt P56373)
- procedure.details: Fluo-4 calcium mobilization assay (FDSS7000), antagonists at human P2X3 receptor in RLE/hP2X3 cells
- condition.context: RLE cells stably expressing hP2X3; 20 min preincubation; 2 uM ATP
- Procedure: […] Fluo-4 assay on FDSS7000 (Hamamatsu) was performed using cryopreserved RLE cells stably expressing hP2X3 plated in 384 well plates, 24 hr before the experiment at a density appropriate for obtaining the desired final confluence. […] Calcium mobilization was measured with the FDSS7000 over a time lapse of 3 min, and fluorescent counts were exported for analysis. […] Hill coefficients and % inhibitions can also be determined.
Record form. Attribute: pIC50. Fill in for each entry.
One number for each entry, as −log10 of the molar value.

Below are worked cases with known answers.
compound=CNC(=O)c1ccc(-c2nc3cc(C)ccn3c2CC2CCN(C(C)=O)CC2)c(C)c1 tested_on="hP2X3 (human Purinergic P2X receptors subtype 3) (Homo sapiens, UniProt P56373)" test_result=7.18
compound=CCC(=O)N1CCO[C@@H](Cc2c(-c3c(F)cc(C(=O)NC)cc3F)nc3cc(Cl)ccn23)C1 tested_on="hP2X3 (human Purinergic P2X receptors subtype 3) (Homo sapiens, UniProt P56373)" test_result=8.22
compound=CCC(=O)N1CCO[C@@H](Cc2c(-c3cc(F)c(C(=O)NC)cc3C)nc3cc(Cl)ccn23)C1 tested_on="hP2X3 (human Purinergic P2X receptors subtype 3) (Homo sapiens, UniProt P56373)" test_result=7.96
compound=CCC(=O)N1CCO[C@@H](Cc2c(-c3ccc(C(=O)NC)cc3C)nc3cc(C)ccn23)C1 tested_on="hP2X3 (human Purinergic P2X receptors subtype 3) (Homo sapiens, UniProt P56373)" test_result=8.30
compound=CCC(=O)N1CCO[C@@H](Cc2c(-c3cc(F)c(C(=O)NC)cc3C)nc3cc(C)ccn23)C1 tested_on="hP2X3 (human Purinergic P2X receptors subtype 3) (Homo sapiens, UniProt P56373)" test_result=8.22

Would you be so kind as to report pIC50 for each listed record?
1. CNC(=O)c1ccc(-c2nc3cc(C)ccn3c2CC2CCCN(C(C)=O)C2)c(C)c1 (centres unmarked)
2. CNC(=O)c1ccc(-c2nc3cc(Cl)ccn3c2C[C@@H]2CN(C(C)=O)CCO2)c(C)c1
3. CNC(=O)c1cc(C)c(-c2nc3cc(C)ccn3c2C[C@@H]2CN(C(C)=O)CCO2)cc1F

Reply text:
[8.00, 6.95, 6.80]

---

- tested.on: hP2X3 (human Purinergic P2X receptors subtype 3) (Homo sapiens)
- procedure.details: Fluo-4 calcium mobilization assay (FDSS7000), antagonists at human P2X3 receptor in RLE/hP2X3 cells
- condition.context: RLE cells stably expressing hP2X3; 20 min preincubation; 2 uM ATP
Lab note: cut-off is 30 nM. Strictly less in IC50 is class 1. Exactly 30 nM or more is class 0.

compound="CNC(=O)c1ccc(-c2nc3cc(C)ccn3c2CC2CCN(C(=O)OC)C2)c(C)c1 (stereo not drawn) [Example 41]" tested_on="hP2X3 (human Purinergic P2X receptors subtype 3) (Homo sapiens)" class_label="class 0"

Inquiry: Is IC50 of CNC(=O)c1cc(F)c(-c2nc3cc(C)ccn3c2C[C@H]2CN(C(C)=O)CCO2)c(F)c1 [Example 32] strictly below 30 nM?
Reply text: class 1

Inquiry: # repeat for CNC(=O)c1ccc(-c2nc3cc(C)ccn3c2CC2CC(C)N(C(C)=O)C2)c(C)c1 (stereo not drawn) [Example 42]
Reply text: class 0

Inquiry: # repeat for CNC(=O)c1ccc(-c2nc3cc(C)ccn3c2C[C@@H]2CN(C(=O)OC)CCO2)c(C)c1 [Example 22]
Reply text: class 0

Inquiry: # repeat for CNC(=O)c1cc(F)c(-c2nc3cc(C)ccn3c2C[C@H]2CN(C(C)=O)CCO2)cc1F [Example 23]
Reply text: class 1

Inquiry: # repeat for CNC(=O)c1ccc(-c2nc3cc(C#N)ccn3c2C[C@H]2CN(C(=O)OC)CCO2)c(C)c1 [Example 36]
Reply text: class 0

Inquiry: # repeat for CNC(=O)c1cc(F)c(-c2nc3cc(Cl)ccn3c2C[C@H]2CN(C(=O)OC)CCO2)c(F)c1 [Example 28]
Reply text: class 1

Inquiry: # repeat for CNC(=O)c1ccc(-c2nc3cc(C)ccn3c2CC2CCN(C(C)=O)C2)c(C)c1 (stereo not drawn) [Example 44]
Reply text: class 0

Inquiry: # repeat for CNC(=O)c1ccc(-c2nc3cc(C)ccn3c2CC2CCN(C(=O)OC)CC2)c(C)c1 [Example 45]
Reply text: class 1
